- System: A498 renal
- PROTOCOL DETAILS: NCI tumour cell line growth inhibition, 48 h
MEASURED PROPERTY: TGI

The examples below pair each entry with its known result.
CN(C)c1ccc(/C=C2\CCCCCC2=O)cc1; > 100 µM
CC(=O)Nc1ccc(C(=O)NN2C(=O)CSC2c2ccccc2)cc1 (stereo not given); > 100 µM
CO[C@@H](c1ccccc1)[C@H](O)[C@@](O)(c1ccccc1)P(=O)(OC)OC; > 100 µM
COc1ccc(NC(=S)Nc2cccc(C)n2)cc1; > 100 µM
COC(=O)C1=C(C)N(NC(=O)Nc2ccccc2)C2(N)N(NC(=O)Nc3ccccc3)C(C)=C(C(=O)OC)C12C(=O)OC (stereo not given); > 100 µM

For reference, reported TGI for CCOC(=O)C1=C(O)c2c(OC)ccc(OC)c2C(=O)C1=O stands at > 100 µM

Looking up Brc1ccc2c(c1)-c1ccccc1C1=NCCN12 , I see its TGI listed as 2.36 µM

Field TGI (entry CC(=O)OCc1cc2c(s1)C(=O)c1sccc1C2=O ) reads 3.23 µM

The compound listed as COc1cc([C@H]2c3cc(O)c(OC)cc3C[C@]3(O)[C@@H]2CO[C@@H]3O)ccc1O shows TGI equal to > 100 µM

Record CC1=C2[C@@H](c3ccccc3)C3C=CC2(C=C3C(F)(F)F)N(C(=O)NC2CCCCC2)C1=O (stereo not given in full) , field TGI: > 100 µM

###

Below, each entry is listed with its recorded GI50.
- System: COLO 205 colon
- PROTOCOL DETAILS: NCI tumour cell line growth inhibition, 48 h

The cases that follow already have their GI50 on record.
COc1ccc(C[C@H](N)C(=O)N[C@@H]2[C@@H](CO)OC(n3cnc4c(N(C)C)ncnc43)[C@@H]2O)cc1 (some centres not stated); 218 nM
Cc1cc(C2(c3cc(C)c(O)c4ncccc34)OC(=O)c3ccccc32)c2cccnc2c1O; 405 nM

Oc1ccc(/C=N/Nc2nnc(N/N=C/c3ccc(O)cc3O)c3ccccc23)c(O)c1 yielded GI50 of 897 nM

GI50 recorded for this compound, COc1ccc(Cl)cc1Nc1nc(C(F)(F)F)ccc1C(=O)N/N=C/c1ccc(Cl)cc1 , is 2760 nM

Recorded GI50 (compound Cc1cc(N(CCCl)CCCl)ccc1/C=N\NC(=O)c1cccnc1 ): 19100 nM

Noted for Cn1c(=O)c(Oc2ccc(F)cc2F)cc2cnc(NC3CCC(O)CC3)nc21 (configuration not stated) : its GI50 reads > 25000 nM

Record COc1cc(/C=C/C(=O)c2c(-c3ccc(Cl)cc3)nc3sc(C)nn23)cc(OC)c1OC . Reported GI50: 60800 nM

Memo: Nc1ccc(N)c2c1C(=O)c1cccc([N+](=O)[O-])c1C2=O , reported GI50: 4170 nM

The compound CN1CCN(Cc2ccc(NC(=O)c3cncc(C#Cc4cnc5cccnn45)c3)cc2C(F)(F)F)CC1 showed GI50 equal to 1020 nM

compound COc1ccc(-c2ccc(/C=N/n3c(COc4ccc(Cl)c(C)c4)nn(CN4CCOCC4)c3=S)o2)c([N+](=O)[O-])c1 , GI50 observed: 39800 nM

The value of GI50 measured for the compound O=C(Nc1cccc(C(F)(F)F)c1)Nc1ccc(OCc2nnc(-c3ccccc3)o2)c(F)c1 turned out to be 2470 nM

Kindly note the recorded GI50 for CN(C)C(=O)c1cc2cnc(Nc3ccc(N4CCNCC4)cn3)nc2n1C1CCCC1 , which is 1750 nM
